Target: CD28 (Homo sapiens, UniProt P10747)
Test: Jurkat/IL2 + CHO/OKT3 +/- PD-L1 reporter assay: PD-L1-dependent CD28 costimulation
Type: cell-based
Design: host or cells: Jurkat cells expressing an IL-2-luciferase reporter
Settings: CHO/OKT3 aAPC, no PD-L1; 50 nM; luciferase signal
Catalogue of PD-L1-Dependent CD28 Costimulation, No PD-L1, 50 nM readings, one per entry.
parameter.measured: PD-L1-Dependent CD28 Costimulation, No PD-L1, 50 nM

molecule | result.value
E35D/M47I/L70M: variant CD80 IgV-Fc, IgV SEQ ID NO:199 (SEQ ID NO:125 in b995) (protein) VIHVTKEVKEVATLSCGHNVSVEELAQTRIYWQKDKKMVLTMMSGDINIWPEYKNRTIFDITNNLSIVIMALRPSDEGTYECVVLKYEKDAFKREHLAEVTLSVKAD | 600
E35D/D46V/L85Q: variant CD80 IgV-Fc, IgV SEQ ID NO:203 (protein) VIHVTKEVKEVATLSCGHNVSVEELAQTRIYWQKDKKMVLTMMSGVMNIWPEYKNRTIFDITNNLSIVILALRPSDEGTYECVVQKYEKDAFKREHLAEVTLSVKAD | 720
E35D/M47I: variant CD80 IgV-Fc, IgV SEQ ID NO:177 (protein) VIHVTKEVKEVATLSCGHNVSVEELAQTRIYWQKDKKMVLTMMSGDINIWPEYKNRTIFDITNNLSIVILALRPSDEGTYECVVLKYEKDAFKREHLAEVTLSVKAD | 894
